B1: FAM189A2 (parent)
chain: VAAALRYLQIFATRRSCIDESQIS

# Variants of: B1
# ASSAY_EXPLANATION: protein stability index of a GFP-peptide fusion (GPS, HEK-293T) (PSI 1-6); higher = more stable;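 further: lentivirally expressed fusions sorted by FACS into six bins by GFP to DsRed ratio, PSI derived from sequencing read proportions per bin multiplied by bin number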
# TEST_CONTEXT: c terminus: a fixed tail appended
Answer N if protein stability index is under 3, and Y if it is 3 or more.

{"columns": ["SEQUENCE_CHANGE", "DISCRETE_LABEL"],
 "data": [
  ["R14D", "N"],
  ["A4Y", "N"],
  ["E20C", "Y"],
  ["S21Q", "N"],
  ["A3W", "Y"],
  ["L5P", "N"],
  ["S16C", "N"],
  ["A2C", "N"],
  ["S24P", "Y"],
  ["F11C", "Y"],
  ["S21Y", "Y"],
  ["R15S", "N"],
  ["I23H", "N"],
  ["Q9I", "Y"],
  ["A4S", "N"],
  ["A12V", "N"],
  ["I23R", "N"],
  ["R14N", "N"],
  ["R6G", "N"],
  ["A4R", "N"],
  ["L8F", "N"],
  ["S24H", "N"],
  ["A12G", "N"],
  ["T13P", "N"],
  ["L5I", "Y"],
  ["R15T", "N"]
]}

Value source: the supplement of paper PMC10567573
